Recorded pIC50 for the following compounds
# study_target: H. pylori PBP1a (Helicobacter pylori, UniProt O25319, /I22V/I24V/I79V/M17V/S417T/V16I, form not given)
# Sequence (O25319 1-659 V16I/M17V/I22V/I24V/G44S/I79V/I101V/F125L/G242S/E323D/D336E/E406V/S417T/D508E): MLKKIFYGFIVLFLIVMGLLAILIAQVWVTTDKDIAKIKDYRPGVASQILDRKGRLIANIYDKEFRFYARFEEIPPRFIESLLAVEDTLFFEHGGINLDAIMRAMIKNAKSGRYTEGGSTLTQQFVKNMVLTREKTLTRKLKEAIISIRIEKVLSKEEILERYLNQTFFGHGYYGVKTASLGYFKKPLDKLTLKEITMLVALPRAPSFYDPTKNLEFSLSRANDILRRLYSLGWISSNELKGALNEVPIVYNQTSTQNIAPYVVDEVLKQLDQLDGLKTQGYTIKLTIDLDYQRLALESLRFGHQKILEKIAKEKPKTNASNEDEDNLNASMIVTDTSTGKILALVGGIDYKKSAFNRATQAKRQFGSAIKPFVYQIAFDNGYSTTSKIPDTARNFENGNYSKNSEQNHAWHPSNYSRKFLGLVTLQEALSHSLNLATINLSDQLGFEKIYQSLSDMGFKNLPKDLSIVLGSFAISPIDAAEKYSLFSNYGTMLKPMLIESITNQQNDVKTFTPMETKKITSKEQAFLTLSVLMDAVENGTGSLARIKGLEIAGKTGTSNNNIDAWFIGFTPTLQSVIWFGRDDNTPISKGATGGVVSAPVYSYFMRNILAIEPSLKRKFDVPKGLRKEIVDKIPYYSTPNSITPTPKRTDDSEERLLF
# experimental_parameters: read-out: IC50 (fluorescence anisotropy assay, displacement of F-Moe); 100 nM F-Moe, 10 μg/ml H. pylori PBP1a, 10 mM Tris pH 8.0, 100 mM NaCl
pIC50 here: minus log base 10 of the concentration, concentration in moles per litre.

Known pIC50 results, listed for orientation:
C=C(CC=C(C)CCC=C(C)C)CCC(C)(C)C=CCCC(C)=CCOC(COP(=O)(O)OC1OC(C(N)=O)C(C)(O)C(OC(N)=O)C1OC1OC(COC2OC(CO)C(O)C(O)C2O)C(OC2OC(C)C(OC3OC(c4nc(C(=O)CCC(=O)O)nn4-c4ccc([N+](=O)[O-])c(C(=O)NCCN)c4)C(O)C(O)C3O)C(O)C2NC(C)=O)C(O)C1NC(C)=O)C(=O)O (stereo not shown) : 5.68
O=C1/C(=N\Nc2nccs2)C(c2ccccc2)=NN1c1ccccc1 : 5.43
C/C(=C\c1ccc(C(=O)O)cc1)c1ccc2c(c1)C(C)(C)CCC2(C)C : 5.03

API: the following record is the query input.
pIC50 reading for O=C1OC(c2ccc(Br)cc2)=C/C1=C/c1ccc([N+](=O)[O-])o1 : 4.47
